- Target of assay: T1, P9-AA
- T1 chain: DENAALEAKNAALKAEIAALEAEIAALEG
- Experiment description: two-hybrid library CCmax;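 further: natural log of median RNA to DNA barcode read ratio; higher means stronger binding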
Recorded metric: interaction score

// solved cases for interaction score follow
> print(dat)
                                    binder  experimental.result
1   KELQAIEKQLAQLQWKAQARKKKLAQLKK [4H_APH]                -1.86
2    DENAALEAKNAALKAEIAALEAEIAALEG [P9-AA]                -1.97
3  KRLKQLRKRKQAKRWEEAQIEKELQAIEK [4H_APH2]                -1.85

A = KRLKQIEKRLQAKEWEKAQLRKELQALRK [4H_APH4]
B = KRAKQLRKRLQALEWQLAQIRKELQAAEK [4H_APH3]
[Q] // pick min by interaction score: A , B Refer to your chosen item by its label in the answer.
[A] A

Hey, just so you know, these numbers are from paper PMC10397247.
